Tested on: SCID mice bearing twin HEK293-CCK2i4svR and wtHEK293 tumors
protocolDetails: Biodistribution in SCID mice bearing twin HEK293-CCK2i4svR and wtHEK293 xenografts
Type: in vivo
measurementParameters: 4 h pi

{"columns": ["compound", "unitsSymbol", "Biodistribution, Kidneys"],
 "data": [
  ["CC(C)(C)C(=O)CN1C(=O)[C@H](NC(=O)Nc2cccc(C(=O)NCCOCCOCCOCCNC(=O)[C@H](CCC(=O)O)NC(=O)CN3CCN(CC(=O)[O-])CCN(CC(=O)[O-])CCN(CC(=O)[O-])CC3)c2)CN(C2CCCCC2)c2ccccc21.[67Ga+3] (stereo in doubt) [[^67Ga]Ga-GAS1]", "%IA/g", 3.59],
  ["CC(C)(C)C(=O)CN1C(=O)[C@H](NC(=O)Nc2cccc(C(=O)NCCOCCOCCOCCNC(=O)[C@H](CCC(=O)O)NC(=O)CCC(C(=O)[O-])N3CCN(CC(=O)[O-])CCN(CC(=O)[O-])CC3)c2)CN(C2CCCCC2)c2ccccc21.[67Ga+3] (stereo in doubt) [[^67Ga]Ga-GAS2]", "%IA/g", 0.39],
  ["CC(C)(C)C(=O)CN1C(=O)[C@H](NC(=O)Nc2cccc(C(=O)NCCOCCOCCOCCNC(=O)[C@H](CCC(=O)O)NC(=O)CN3CCN(CC(=O)[O-])CCN(CC(=O)[O-])CCN(CC(=O)[O-])CC3)c2)CN(C2CCCCC2)c2ccccc21.[111In+3] (stereo in doubt) [[^111In]In-GAS1]", "%IA/g", 6.06],
  ["CC(C)(C)C(=O)CN1C(=O)[C@H](NC(=O)Nc2cccc(C(=O)NCCOCCOCCOCCNC(=O)[C@@H](CCC(=O)O)NC(=O)CCC(C(=O)[O-])N3CCN(CC(=O)[O-])CCN(CC(=O)[O-])CC3)c2)CN(C2CCCCC2)c2ccccc21.[111In+3] (stereo partly shown) [[^111In]In-GAS2]", "%IA/g", 29.55]
]}

* * *

protocolDetails: Radioligand stability in mice (radio-HPLC of blood and urine)
Format: in vivo
measurementParameters: mice urine collected 30 min pi; mean ± SD
resultType: Intact radioligand in urine

{"columns": ["compound", "result"],
 "data": [
  ["CC(C)(C)C(=O)CN1C(=O)[C@H](NC(=O)Nc2cccc(C(=O)NCCOCCOCCOCCNC(=O)[C@H](CCC(=O)O)NC(=O)CN3CCN(CC(=O)[O-])CCN(CC(=O)[O-])CCN(CC(=O)[O-])CC3)c2)CN(C2CCCCC2)c2ccccc21.[111In+3] (stereo in doubt) [[^111In]In-GAS1]", "85.2 ± 5.2 (3) %"],
  ["CC(C)(C)C(=O)CN1C(=O)[C@H](NC(=O)Nc2cccc(C(=O)NCCOCCOCCOCCNC(=O)[C@H](CCC(=O)O)NC(=O)CCC(C(=O)O)N3CCN(CC(=O)[O-])CCN(CC(=O)[O-])CCN(CC(=O)[O-])CC3)c2)CN(C2CCCCC2)c2ccccc21.[177Lu+3] (stereo in doubt) [[^177Lu]Lu-GAS3]", "88.1 ± 0.4 (3) %"]
]}

* * *

Tested on: SCID mice bearing twin HEK293-CCK2i4svR and wtHEK293 tumors
protocolDetails: Biodistribution in SCID mice bearing twin HEK293-CCK2i4svR and wtHEK293 xenografts
Assay type: in vivo
measurementParameters: 4 h pi
resultType: Biodistribution, Liver

{"columns": ["compound", "resultType", "result"],
 "data": [
  ["CC(C)(C)C(=O)CN1C(=O)[C@H](NC(=O)Nc2cccc(C(=O)NCCOCCOCCOCCNC(=O)[C@H](CCC(=O)O)NC(=O)CCC(C(=O)O)N3CCN(CC(=O)[O-])CCN(CC(=O)[O-])CCN(CC(=O)[O-])CC3)c2)CN(C2CCCCC2)c2ccccc21.[67Ga+3] (stereo in doubt) [[^67Ga]Ga-GAS3]", "Biodistribution, Liver", "4.97 ± 0.74 %IA/g"],
  ["CC(C)(C)C(=O)CN1C(=O)[C@H](NC(=O)Nc2cccc(C(=O)NCCOCCOCCOCCNC(=O)[C@H](CCC(=O)O)NC(=O)CCC(C(=O)O)N3CCN(CC(=O)[O-])CCN(CC(=O)[O-])CCN(CC(=O)[O-])CC3)c2)CN(C2CCCCC2)c2ccccc21.[177Lu+3] (stereo in doubt) [[^177Lu]Lu-GAS3]", "Biodistribution, Liver", "2.73 ± 0.31 %IA/g"],
  ["CC(C)(C)C(=O)CN1C(=O)[C@H](NC(=O)Nc2cccc(C(=O)NCCOCCOCCOCCNC(=O)[C@@H](CCC(=O)O)NC(=O)CCC(C(=O)O)N3CCN(CC(=O)[O-])CCN(CC(=O)[O-])CCN(CC(=O)[O-])CC3)c2)CN(C2CCCCC2)c2ccccc21.[111In+3] (stereo partly shown) [[^111In]In-GAS3]", "Biodistribution, Liver", "2.78 ± 0.27 %IA/g"],
  ["CC(C)(C)C(=O)CN1C(=O)[C@H](NC(=O)Nc2cccc(C(=O)NCCOCCOCCOCCNC(=O)[C@H](CCC(=O)O)NC(=O)CCC(C(=O)[O-])N3CCN(CC(=O)[O-])CCN(CC(=O)[O-])CC3)c2)CN(C2CCCCC2)c2ccccc21.[67Ga+3] (stereo in doubt) [[^67Ga]Ga-GAS2]", "Biodistribution, Liver", "2.64 ± 0.85 %IA/g"]
]}
